src = PubChem BioAssay

Experiment: calcein-AM signal in unstimulated myeloma cells – cell-based, calcein-AM fluorescence, 48 h, PK04 Diversity Set, profiling panel (AID 1166);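 also: cells grown under basal conditions without added stimulus; test concentration not given here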
Details: RPMI8226 myeloma viability, higher = more signal
The label YES is reserved for z-score strictly under -0.3; NO covers values equal to or above it.

compound: CCOC(=O)C[C@H]1[C@H](OC(=O)c2cc3ccccc3oc2=O)[C@@H](NC(=O)CC(C)C)c2cc(OCCCO)ccc2N1C(=O)Cc1ccc(OC)cc1
cat: NO
--
compound: O=C1O[C@H](Cc2ccccc2)[C@@H]2[C@H]3C=CCCC=C3CN2[C@H]1Cc1ccc(O)cc1
cat: NO
--
compound: CN(C)CCCNC(=O)[C@@]1(C)c2ccccc2C(=O)N(Cc2ccc(OC(F)(F)F)cc2)[C@H]1c1ccc(CO)cc1
cat: NO
--
compound: C[C@@H]1ON(c2ccc(I)cc2)[C@H](c2cccc(NC(=O)OCC3c4ccccc4-c4ccccc43)c2)[C@H]1C(=O)N1C(=O)OC[C@H]1Cc1ccccc1
cat: YES
--
compound: CC(C)=C1C(=O)C(c2ccccc2)=C2CN3C(=O)N(CCc4ccccc4)C(=O)[C@]3(C)[C@H]21
cat: YES
--
compound: COc1ccc([Si](C)(C)[C@@H]2[C@@H](CC(=O)N3Cc4ccccc4C[C@H]3CO)O[C@]3(C(=O)N(Cc4cccc(N5CCOC5=O)c4)c4ccccc43)[C@H]2C)cc1
cat: YES
--
compound: COCC(=C=CC[C@H](O)c1ccccc1OCCO)C[C@H](O)COCc1ccccc1
cat: YES
--
compound: [N-]=[N+]=NCc1ccccc1[C@@H]1OC(c2ccc(OCCCO)cc2)=N[C@]1(Cc1ccccc1N=[N+]=[N-])C(=O)O
cat: YES
--
compound: NCCCCCCNC(=O)[C@@H]1C[C@@H]2C(=O)N3CCC[C@H]3C(=O)N2[C@@H]1c1cccc(OCCO)c1
cat: NO
--
compound: O=C1O[C@H](c2ccccc2)[C@H](c2ccccc2)N2[C@H]1[C@@H](C(=O)O)[C@]1(C(=O)Nc3ccc(C#CCCO)cc31)[C@H]2c1ccc(OCCO)cc1
cat: NO
--
compound: CCOC(=O)C[C@H]1[C@H](OC(=O)Cc2ccc3c(c2)OCO3)[C@@H](NC(=O)c2ccc3ccccc3n2)c2cc(OCCCO)ccc2N1C(=O)Cc1ccc(OC)cc1
cat: YES
--
compound: N#Cc1ccc(C(O)C2C=CC3C(=O)NC(=O)C3N2Nc2ccc(Cl)cc2Cl)cc1 (stereo not given)
cat: YES
--
compound: Cc1ccccc1C(O)C1C=CC2C(=O)N(c3ccccc3)C(=O)C2N1Nc1ccccc1 (stereo not given)
cat: YES
--
compound: COC(=O)[C@H](Cc1ccccc1)N1CC2=CCCC=C[C@@H]2[C@H]1[C@H](O)Cc1ccccc1
cat: YES
--
compound: C=CCC(OC(C)=O)[C@@H]1[C@@H](N(Cc2cc3ccccc3o2)C(=O)Cc2ccc(OC)cc2)c2cc(OCCCO)ccc2N1C(=O)c1ccc2ccccc2n1 (stereo not given in full)
cat: YES
